Tested on: Calf thymus DNA
Assay: Displacement of thiazole orange from calf thymus duplex DNA after 5 mins in presence of KCl by fluorescence assay
Format: nucleic-acid assay, Bos taurus
Hi! Could you tag entries with DC50 below 6 µM as 1, and those at or above as 0? Much appreciated.

>>> category_label("CCn1c2ccc(-c3nc4ccc(N5CCN(CCO)CC5)cc4[nH]3)cc2c2cc(-c3nc4ccc(N5CCN(CCO)CC5)cc4[nH]3)ccc21")
1
>>> category_label("CN1CCN(CCCCn2c3ccc(-c4nc5cc(N6CCOCC6)ccc5[nH]4)cc3c3cc(-c4nc5cc(N6CCOCC6)ccc5[nH]4)ccc32)CC1")
1
>>> category_label("CN1CCN(CCCCn2c3ccc(-c4nc5cc(N6CCN(CCO)CC6)ccc5[nH]4)cc3c3cc(-c4nc5cc(N6CCN(CCO)CC6)ccc5[nH]4)ccc32)CC1")
0
>>> category_label("C[N+]1(CCCCN2CCOCC2)CCN(CCCCn2c3ccc(-c4nc5ccc(N6CCOCC6)cc5[nH]4)cc3c3cc(-c4nc5ccc(N6CCOCC6)cc5[nH]4)ccc32)CC1")
0
>>> category_label("CN(C)CCCCn1c2ccc(-c3nc4ccc(N5CCN(CCO)CC5)cc4[nH]3)cc2c2cc(-c3nc4ccc(N5CCN(CCO)CC5)cc4[nH]3)ccc21")
0
>>> category_label("C[n+]1ccc(-c2c3nc(c(-c4cc[n+](C)cc4)c4ccc([nH]4)c(-c4cc[n+](C)cc4)c4nc(c(-c5cc[n+](C)cc5)c5ccc2[nH]5)C=C4)C=C3)cc1")
1
